Molecular target: Taste receptor type 2 member 46 (Homo sapiens)
Test: Antagonist activity at recombinant human N-terminal rat ST3 receptor-fused TAS2R46 expressed in HEK293T cells co-expressing Galpha16gust44 assessed as inhibition of 30 uM andrographolide-induced intracellular calcium level 100 uM by FLIPR assay
Type: functional, cell-based
MEASURED_ATTRIBUTE: IC50 (µM)
Number only, in µM; omit the unit.

State its IC50: C/C1=C\C[C@H](O)[C@@H](C)C[C@H]2OC(=O)[C@@H](C)C2CC1 (stereo partly specified) 44.5

---

Biological target: Taste receptor type 2 member 46 (Homo sapiens)
Assay: Antagonist activity at recombinant human N-terminal rat ST3 receptor-fused TAS2R46 expressed in HEK293T cells co-expressing Galpha16gust44 assessed as inhibition of 3 uM strychnine-induced intracellular calcium level 100 uM by FLIPR assay
Type: functional, cell-based
MEASURED_ATTRIBUTE: IC50 (µM)
// return numeric value only (unit: µM, not printed)

C/C1=C\C[C@H](O)[C@@H](C)C[C@H]2OC(=O)[C@@H](C)C2CC1 (some centres not stated); 84.9

Now look at this entry.
Supply measured IC50 of C/C1=C\C[C@H](O)/C(C)=C/[C@H]2OC(=O)[C@@H](C)C2CC1 (some centres not stated) in your reply. 15.3

---

Biological target: Taste receptor type 2 member 46 (Homo sapiens)
Assay: Activity at recombinant human N-terminal rat ST3 receptor-fused TAS2R46 expressed in HEK293T cells co-expressing Galpha16gust44 assessed as activation of 3 uM strychnine-induced intracellular calcium level by FLIPR assay
Type: functional, cell-based
The entries below come with measured EC50 values attached.
Answer format: numeric, µM implied, no suffix.

C=C1C(=O)O[C@@H]2/C=C(\C)CC/C=C(\C)CCC12 (stereo partly drawn); 8.6
CC(=O)O[C@H]1C/C=C(\C)CCC2[C@H](C)C(=O)O[C@@H]2/C=C/1C (stereo partly drawn); 1.1

Let us move to another entry and its EC50.
Give the value of EC50 reported for the following: C/C1=C\[C@H]2OC(=O)[C@@H](C)C2CC/C(C)=C/CC1 (stereo partly drawn) 8.3

---

Molecular target: UniProt:P59540
Sequence (P59540 whole entry): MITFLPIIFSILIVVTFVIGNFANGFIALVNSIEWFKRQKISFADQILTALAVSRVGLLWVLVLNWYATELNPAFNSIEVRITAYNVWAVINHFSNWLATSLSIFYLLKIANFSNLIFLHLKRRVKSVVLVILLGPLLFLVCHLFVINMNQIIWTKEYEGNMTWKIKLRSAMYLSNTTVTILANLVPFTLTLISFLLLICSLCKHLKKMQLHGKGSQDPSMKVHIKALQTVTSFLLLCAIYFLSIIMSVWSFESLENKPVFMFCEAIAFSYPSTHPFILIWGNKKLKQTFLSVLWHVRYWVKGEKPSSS
Experiment: Antagonist activity at recombinant human N-terminal rat ST3 receptor-fused TAS2R46 expressed in HEK293T cells co-expressing Galpha16gust44 assessed as inhibition of 300 uM picrotoxinin-induced intracellular calcium level 100 uM by FLIPR assay
Format: functional, cell-based
MEASURED_ATTRIBUTE: IC50 (µM)
Unit µM implied. Number only.

Answer briefly: IC50 recorded on UniProt:P59540 for C/C1=C\C[C@H](O)[C@@H](C)C[C@H]2OC(=O)[C@@H](C)C2CC1 (stereo partly specified) 22.9

---

Target: Taste receptor type 2 member 46 (Homo sapiens, UniProt P59540)
Sequence (P59540 whole entry): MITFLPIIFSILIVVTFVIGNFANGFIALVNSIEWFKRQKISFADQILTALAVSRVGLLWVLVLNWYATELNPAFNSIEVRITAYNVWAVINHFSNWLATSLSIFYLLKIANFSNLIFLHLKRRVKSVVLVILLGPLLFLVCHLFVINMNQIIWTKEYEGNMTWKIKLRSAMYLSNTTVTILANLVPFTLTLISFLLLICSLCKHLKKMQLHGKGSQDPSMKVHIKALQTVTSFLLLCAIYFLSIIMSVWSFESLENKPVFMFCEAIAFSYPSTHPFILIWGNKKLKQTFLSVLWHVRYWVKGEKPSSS
Test: Antagonist activity at recombinant human N-terminal rat ST3 receptor-fused TAS2R46 expressed in HEK293T cells co-expressing Galpha16gust44 assessed as inhibition of 300 uM denatonium benzoate-induced intracellular calcium level 100 uM by FLIPR assay
Format: functional, cell-based
MEASURED_ATTRIBUTE: IC50 (µM)
Write the answer as a number in µM, unit excluded.

Given C/C1=C\C[C@H](O)[C@@H](C)C[C@H]2OC(=O)[C@@H](C)C2CC1 (stereo partly specified) , respond with its IC50. 51.4

---

Biological target: Taste receptor type 2 member 31 (Homo sapiens)
Sequence (P59538 whole entry, the tested form may be a part): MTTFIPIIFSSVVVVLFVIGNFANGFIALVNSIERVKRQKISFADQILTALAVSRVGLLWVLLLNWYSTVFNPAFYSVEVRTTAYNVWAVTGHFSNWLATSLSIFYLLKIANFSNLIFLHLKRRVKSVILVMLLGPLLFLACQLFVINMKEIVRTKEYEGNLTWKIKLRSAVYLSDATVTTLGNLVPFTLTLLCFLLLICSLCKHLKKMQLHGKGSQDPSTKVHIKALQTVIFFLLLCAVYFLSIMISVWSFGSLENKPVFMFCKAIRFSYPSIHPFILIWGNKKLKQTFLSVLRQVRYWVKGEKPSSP
Experiment: Agonist activity at recombinant human N-terminal rat ST3 receptor-fused TAS2R44 expressed in HEK293T cells co-expressing Galpha16gust44 assessed as effect on intracellular calcium level by FLIPR assay
Format: functional, cell-based
MEASURED_ATTRIBUTE: EC50 (µM)
I only need the number, in µM, no unit after it.

Please report the measured EC50 for C/C1=C\C[C@H](O)/C(C)=C/[C@H]2OC(=O)[C@@H](C)C2CC1 (stereo partly specified) 31.5

---

Biological target: Taste receptor type 2 member 46 (Homo sapiens, UniProt P59540)
Test: Antagonist activity at recombinant human N-terminal rat ST3 receptor-fused TAS2R46 expressed in HEK293T cells co-expressing Galpha16gust44 assessed as inhibition of 100 uM absinthin-induced intracellular calcium level 100 uM by FLIPR assay
Type: functional, cell-based
MEASURED_ATTRIBUTE: IC50 (µM)
Express your answer in µM, writing the number without its unit.

State IC50 (Taste receptor type 2 member 46 (Homo sapiens, UniProt P59540)) of C/C1=C\C[C@H](O)[C@@H](C)C[C@H]2OC(=O)[C@@H](C)C2CC1 (stereo partly specified) . 57.8
